tested.on: T1, recombinant monkey TfR (r monkey TfR: Sino Biological Inc.) (cynomolgus monkey (Macaca fascicularis), UniProt Q5RDH6 89-760 (Pongo abelii entry))
T1 construct: Bought product; also called r monkey TfR-ECD (Histag); cynomolgus monkey TfR; not shown: histidine tag attached to the N-terminus
T1 chain: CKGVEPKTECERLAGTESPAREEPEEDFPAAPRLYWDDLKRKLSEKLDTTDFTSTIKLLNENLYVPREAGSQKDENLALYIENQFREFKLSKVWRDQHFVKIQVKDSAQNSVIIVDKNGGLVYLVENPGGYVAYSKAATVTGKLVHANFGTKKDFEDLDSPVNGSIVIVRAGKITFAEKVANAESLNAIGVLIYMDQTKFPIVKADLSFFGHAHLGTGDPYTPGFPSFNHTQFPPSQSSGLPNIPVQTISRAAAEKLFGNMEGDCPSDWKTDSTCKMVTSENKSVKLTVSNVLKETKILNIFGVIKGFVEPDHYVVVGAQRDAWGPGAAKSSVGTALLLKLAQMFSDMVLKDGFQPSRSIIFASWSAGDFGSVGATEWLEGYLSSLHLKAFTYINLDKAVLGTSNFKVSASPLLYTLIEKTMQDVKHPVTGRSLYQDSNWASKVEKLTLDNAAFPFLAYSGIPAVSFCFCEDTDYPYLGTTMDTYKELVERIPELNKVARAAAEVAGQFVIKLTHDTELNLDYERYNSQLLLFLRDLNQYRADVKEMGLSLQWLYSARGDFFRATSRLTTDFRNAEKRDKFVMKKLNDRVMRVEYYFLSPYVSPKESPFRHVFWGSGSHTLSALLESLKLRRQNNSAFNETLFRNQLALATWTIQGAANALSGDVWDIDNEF
assay.name: BLI (Octet RED96), His-tagged TfR ECD loaded on Ni-NTA sensor, antibody as analyte

[
  {
    "binder": "anti-hTfR antibody No. 8 (antibody, V domains shown, Mouse hybridoma antibody purified on Protein G; also called mouse anti-hTfR antibody No. 8; product of Clone 8 line) VH: EVQLQESGPGLVAPSQSLSITCTVSGFSLTTYGVSWIRQPPGKGLEWLGIIWGDGSTNYRSALISRLSISKDNSKNQVFLKLNSLQTDDTATYYCAKPDDYWGQGTSVTVSS VL: DIVLTQSPAIMSASLGEEITLTCSASSSVSYMHWYQQKSGTSPKVLIYGTSNLASEVPSRFSGSGSGTFYSLTISSVEAEDAADYYCHQWSSYPWTFGGGTKLEIK",
    "unit.abbrev": "s⁻¹",
    "koff": 0.00507
  },
  {
    "binder": "anti-hTfR antibody No. 13 (antibody, V domains shown, Mouse hybridoma antibody purified on Protein G; also called mouse anti-hTfR antibody No. 13; product of Clone 13 line) VH: EVQLQESGAELVRPGSSVKISCKASGYAFSIYWINWLKQRPGQGLEWIGQIYPGNGDTNYNGKFKGKATLTADKSSNTVYMRLSSLTSEDSAVYFCGRWGDDYAMDFWGQGTSVTVSS VL: DIVITQTPATLSVTPGDRVSLSCRASQSIRNYLHWYQQKSHESPRLLIKYASQSISGIPSRFSGSGSGTDFTLTINSVETEDFGMYFCQQTNSWPYTFGGGTKLEIK",
    "unit.abbrev": "s⁻¹",
    "koff": "7.29e-05"
  },
  {
    "binder": "anti-hTfR antibody No. 4 (antibody, V domains shown, Mouse hybridoma antibody purified on Protein G; also called mouse anti-hTfR antibody No. 4; product of Clone 4 line) VH: EVQLQESGAELVRPGTSVRVFCKASGYAFTNYLIEWVKQRPGQGLEWIGLINPGSGGIIYNEKFTDRATLTADKSSSTAYMQLSSLTSDDSAVYFCARSNYYGTTYWHFDVWGAGTTVTVSS VL: DIVLTQTPAIMSASPGEKVTMTCSASSNVNYMHWYQQKSSTSPKLWIYDTSKLASGVPGRFSGSGSGNSYSLTISSMEAEDVATYYCFQGNGNPYTFGGGTKLEIK",
    "unit.abbrev": "s⁻¹",
    "koff": 0.000121
  }
]
